# maps each entry to its Percent variations of plasma cholesterol with respect to the controls
Test system: plasma levels of cholesterol
Experiment: Effect of oral administration on plasma levels of cholesterol in the empty rat
Type: in vivo, rat (COBS CD (SD) BR male)
Conditions: 100 mg/kg oral referred to nicotinic acid, 8 h, empty rat
observable: Percent variations of plasma cholesterol with respect to the controls

compound="O=C(OCC(COC(=O)c1cccnc1)(COC(=O)c1cccnc1)COC(=O)c1cccnc1)c1cccnc1 [NICERITROLE, pentaerithritol-tetranicotinate]" reading=0%
compound="O=C(OC[C@H](OC(=O)c1cccnc1)[C@@H](OC(=O)c1cccnc1)[C@H](OC(=O)c1cccnc1)[C@@H](COC(=O)c1cccnc1)OC(=O)c1cccnc1)c1cccnc1 [SORBINICATE, D-glucitol hexanicotinate]" reading=-7%
compound="O=C(N[C@H]1C(OC(=O)c2cccnc2)O[C@H](COC(=O)c2cccnc2)[C@@H](OC(=O)c2cccnc2)[C@@H]1OC(=O)c1cccnc1)c1cccnc1 (stereo partly shown) [GLUN, N-nicotinoyl-glucosamine tetranicotinate]" reading=-13%
compound="O=C(O)c1cccnc1 [NICOTINIC ACID, nicotinic acid]" reading=-13%

====

Test: in vivo
Conditions: rat, po, 100 mg/kg
observable: Tmax

molecular_string=O=C(O)c1cccnc1 reading="≤ 30 min"

====

Test system: plasma levels of free glycerol
Assay: Effect of oral administration on plasma levels of free glycerol in the empty rat
Format: in vivo, rat (COBS CD (SD) BR male)
Conditions: 30 mg/kg oral referred to nicotinic acid, 1 h, empty rat
observable: Percent variations of plasma free glycerol with respect to the controls (%)

compound="O=C(OC[C@H](OC(=O)c1cccnc1)[C@@H](OC(=O)c1cccnc1)[C@H](OC(=O)c1cccnc1)[C@@H](COC(=O)c1cccnc1)OC(=O)c1cccnc1)c1cccnc1 [SORBINICATE, D-glucitol hexanicotinate]" reading=-59
compound=O=C(O)c1cccnc1 reading=-72
compound="O=C(N[C@H]1C(OC(=O)c2cccnc2)O[C@H](COC(=O)c2cccnc2)[C@@H](OC(=O)c2cccnc2)[C@@H]1OC(=O)c1cccnc1)c1cccnc1 (stereo partly shown) [GLUN, N-nicotinoyl-glucosamine tetranicotinate]" reading=-27
compound="O=C(OCC(COC(=O)c1cccnc1)(COC(=O)c1cccnc1)COC(=O)c1cccnc1)c1cccnc1 [NICERITROLE, pentaerithritol-tetranicotinate]" reading=-77

====

System: plasma levels of free glycerol
Experiment: Effect of oral administration on plasma levels of free glycerol in the empty rat
Format: in vivo, rat (COBS CD (SD) BR male)
Settings: 30 mg/kg oral referred to nicotinic acid, 4 h, empty rat
observable: Percent variations of plasma free glycerol with respect to the controls (%)

compound="O=C(OCC(COC(=O)c1cccnc1)(COC(=O)c1cccnc1)COC(=O)c1cccnc1)c1cccnc1 [NICERITROLE, pentaerithritol-tetranicotinate]" reading=-4
compound="O=C(N[C@H]1C(OC(=O)c2cccnc2)O[C@H](COC(=O)c2cccnc2)[C@@H](OC(=O)c2cccnc2)[C@@H]1OC(=O)c1cccnc1)c1cccnc1 (stereo partly shown) [GLUN, N-nicotinoyl-glucosamine tetranicotinate]" reading=-7

====

Recorded Percent variations of plasma triglycerides with respect to the controls values for a group of compounds are listed next.
Tested on: plasma levels of triglycerides
Assay: Effect of oral administration on plasma levels of triglycerides in the empty rat
Type: in vivo, rat (COBS CD (SD) BR male)
Conditions: 100 mg/kg oral referred to nicotinic acid, 16 h, empty rat
observable: Percent variations of plasma triglycerides with respect to the controls (%)

compound="O=C(OC[C@H](OC(=O)c1cccnc1)[C@@H](OC(=O)c1cccnc1)[C@H](OC(=O)c1cccnc1)[C@@H](COC(=O)c1cccnc1)OC(=O)c1cccnc1)c1cccnc1 [SORBINICATE, D-glucitol hexanicotinate]" reading=-3
compound="O=C(OCC(COC(=O)c1cccnc1)(COC(=O)c1cccnc1)COC(=O)c1cccnc1)c1cccnc1 [NICERITROLE, pentaerithritol-tetranicotinate]" reading=-3
compound="O=C(N[C@H]1C(OC(=O)c2cccnc2)O[C@H](COC(=O)c2cccnc2)[C@@H](OC(=O)c2cccnc2)[C@@H]1OC(=O)c1cccnc1)c1cccnc1 (stereo partly shown) [GLUN, N-nicotinoyl-glucosamine tetranicotinate]" reading=-67
